Target: purified human plasma kallikrein (PK) (Homo sapiens)
Sequence (P03952 20-638): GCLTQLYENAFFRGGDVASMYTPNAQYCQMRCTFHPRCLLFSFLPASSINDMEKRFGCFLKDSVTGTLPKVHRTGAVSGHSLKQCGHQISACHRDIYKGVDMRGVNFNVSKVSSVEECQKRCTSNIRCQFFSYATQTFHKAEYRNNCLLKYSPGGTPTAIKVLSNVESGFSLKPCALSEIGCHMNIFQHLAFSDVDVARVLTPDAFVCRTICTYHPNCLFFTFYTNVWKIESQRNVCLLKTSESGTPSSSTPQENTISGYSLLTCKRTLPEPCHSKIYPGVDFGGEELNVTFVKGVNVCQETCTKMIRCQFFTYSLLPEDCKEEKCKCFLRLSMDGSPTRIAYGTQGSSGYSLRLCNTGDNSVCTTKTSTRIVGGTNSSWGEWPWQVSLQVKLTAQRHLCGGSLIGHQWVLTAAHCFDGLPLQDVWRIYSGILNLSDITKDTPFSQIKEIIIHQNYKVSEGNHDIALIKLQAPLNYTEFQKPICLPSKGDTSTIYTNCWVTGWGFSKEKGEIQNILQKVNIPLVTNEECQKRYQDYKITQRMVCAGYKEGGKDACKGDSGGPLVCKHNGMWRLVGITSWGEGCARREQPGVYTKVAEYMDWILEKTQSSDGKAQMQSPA
Assay: Inhibitor profile of ASP-440: plasma kallikrein
Details: PlasmaKallikrein

- CHEMICAL_SMILES: "N=C(N)c1ccc(CNC(=O)c2cnn(Cc3ccccc3)c2)cc1"
  RESULT_UNIT: "nM"
  Ki: 100

====

Molecular target: Thrombin (Homo sapiens)
pKi: −log10 of the molar value.
QUANTITY: pKi

- CHEMICAL_SMILES: "N=C(N)c1ccc(CNC(=O)c2cnn(Cc3ccccc3)c2)cc1"
  QUANTITY: "pKi"
  RECORDED_NUMBER: 3.96
